# Tested on: SF-295
# Method summary: Cytotoxicity against human SF295 cells by MTT assay
# Assay type: cell-based
Some compounds, each annotated with its measured Activity.
Respond numerically; units are µg/mL and should not be typed.

The cases that follow already have their Activity on record.
{"Compound": "O[C@H]1/C2=C\\C/C=C/C=C\\C=C/CCN3CC45CCCCCCCCCCCCN(CC1C4CC23)C5 (some centres undefined)", "Activity [µg/mL]": 19.8}
{"Compound": "C1=C\\CCCCC[C@H]2CN3CC/C=C\\CCCCCC[C@@H]4C[C@@H](CN(CC/C=C\\C/1)C4)[C@H]2CC3", "Activity [µg/mL]": 4.5}
{"Compound": "OC1\\C=C/C=C/C=C/CC[C@H]2CN3CCCCCCCCCCCC[C@H]4C[C@H](CN(C1)C4)[C@@H]2CC3 (some centres undefined)", "Activity [µg/mL]": 8.7}

Below: the item to evaluate.
What measured Activity is associated with OC1/C=C\C=C/CCCCCC[C@H]2CN3CC/C=C\CCCCCCC4C[C@@H](CN(C1)C4)[C@H]2CC3 (some centres undefined) on SF-295?
5.9

---

Some compounds, each annotated with its measured Activity.
# Method summary: Cytotoxicity against human MDA-MB435 cells by MTT assay
# Format: cell-based
# Condition: mda-mb-435
Respond numerically; units are µg/mL and should not be typed.

The cases that follow already have their Activity on record.
{"Compound": "OC1\\C=C/C=C/C=C/CC[C@H]2CN3CCCCCCCCCCCC[C@H]4C[C@H](CN(C1)C4)[C@@H]2CC3 (some centres undefined)", "Display unit": "µg/mL", "Activity": 3.1}
{"Compound": "O[C@H]1/C2=C\\C/C=C/C=C\\C=C/CCN3CC45CCCCCCCCCCCCN(CC1C4CC23)C5 (some centres undefined)", "Display unit": "µg/mL", "Activity": 16.2}
{"Compound": "C1=C\\CCCCC[C@H]2CN3CC/C=C\\CCCCCC[C@@H]4C[C@@H](CN(CC/C=C\\C/1)C4)[C@H]2CC3", "Display unit": "µg/mL", "Activity": 1}

Below: the item to evaluate.
Need Activity, item OC1/C=C\C=C/CCCCCC[C@H]2CN3CC/C=C\CCCCCCC4C[C@@H](CN(C1)C4)[C@H]2CC3 (some centres undefined)
1.2

---

# Test system: HCT-8
# Method summary: Cytotoxicity against human HCT8 cells by MTT assay
# Format: cell-based
Property: Activity

The cases that follow already have their Activity on record.
{"Molecule": "C1=C\\CCCCC[C@H]2CN3CC/C=C\\CCCCCC[C@@H]4C[C@@H](CN(CC/C=C\\C/1)C4)[C@H]2CC3 [HALICLONACYCLAMINE F]", "Obs value": "8.6 µg/mL"}
{"Molecule": "O[C@H]1/C2=C\\C/C=C/C=C\\C=C/CCN3CC45CCCCCCCCCCCCN(CC1C4CC23)C5 (some centres undefined) [MADANGAMINE F]", "Obs value": "> 25 µg/mL"}
{"Molecule": "OC1\\C=C/C=C/C=C/CC[C@H]2CN3CCCCCCCCCCCC[C@H]4C[C@H](CN(C1)C4)[C@@H]2CC3 (some centres undefined)", "Obs value": "> 25 µg/mL"}

Below: the item to evaluate.
Need Activity, item OC1/C=C\C=C/CCCCCC[C@H]2CN3CC/C=C\CCCCCCC4C[C@@H](CN(C1)C4)[C@H]2CC3 (some centres undefined) [ARENOSCLERIN D]
6.2 µg/mL
